Listed below: pIC50 values for each entry.
- measuredTarget: catalytic domain of human MMP-13 (Homo sapiens, UniProt P45452)
- Construct: the catalytic domain of human MMP-13
- protocolDetails: Inhibition of proteolysis of a thioester peptide substrate by MMP-13
- Format: biochemical
- testConditions: substrate Ac-Pro-Leu-Gly-thioester-Leu-Leu-Gly-OEt 100 μM, pH 7.0, 2.5 nM enzyme; read-out: IC50 values on MMP-13
pIC50: −log10 of the molar value. Counter-ions that a name gives are not always drawn.

Solved entries:
COc1ccc(CNC(=O)c2ccc3ncn(Cc4ccc(S(=O)(=O)N5CCCC5)cc4)c(=O)c3c2)cc1 :: > 6.00
CN1CCN(CC#Cc2ccc3ncn(Cc4ccc(C(=O)O)cc4)c(=O)c3c2)CC1 [Example 108, trifluoroacetic acid salt] :: ≤ 4.19
COc1ccc(CNC(=O)c2ccc3c(c2)C(=O)N(Cc2ccc(OC)cc2)C(C)(C)N3C)cc1 :: > 6.00

Consider now this further molecule.
Quote pIC50 reported for O=C(O)c1ccc(Cn2cnc3ccc(C#CCN4Cc5ccccc5C4)cc3c2=O)cc1 please. > 6.00
